Recorded Caco-2, one value per entry.
# System: Caco-2 cells
# method notes: Caco-2 membrane permeability, improved method as used in the following Examples (96-well, 20 to 24 h preincubation)
# Type: in vitro ADME
# assay setup: human, Caco-2, 180 min
Positions of bridges follow the written chain, without caps; N, C: chain ends. Non-standard residues stand in square brackets, D forms with d. Residues, ends and D or L forms follow the SMILES beside them. *: point of attachment. NMeF = CN[C@@H](Cc1ccccc1)C(=O)O; NMeL = CN[C@@H](CC(C)C)C(=O)O; NMeAbu = CC[C@H](NC)C(=O)O; NPentylGly = CCCCCNCC(=O)O; hSer = N[C@@H](CCO)C(=O)O; Piperidide = C1CCN(*)CC1; NBuGly = CCCCNCC(=O)O; Sar = CNCC(=O)O; tBu = CC(C)(C)*
State the answer as a number, implicitly in cm/s.

| molecule | experimental target | measured metric | u | observed result |
| --- | --- | --- | --- | --- |
| CCCCCN1CC(=O)N[C@@H](COC(C)(C)C)C(=O)N(C)[C@@H](Cc2ccccc2)C(=O)N(C)[C@@H](CC(C)C)C(=O)N[C@H](C(=O)N2CCCCC2)CC(=O)N[C@H](CC(C)C)C(=O)N(C)[C@@H](Cc2ccccc2)C(=O)N[C@@H]([C@@H](C)CC)C(=O)N(C)[C@@H](CC)C(=O)N[C@@H]([C@@H](C)O)C(=O)N(C)CC1=O [pd406] ([dL][NMeF]I[NMeAbu]T[Sar][NPentylGly]S(tBu)[NMeF][NMeL]D-Piperidide; lactam N-11) | Caco-2 cells | Caco-2 | cm/s | 1.1e-06 |

// switching to the query molecule
Problem: Give its Caco-2 value. Item: CCCCN1CC(=O)N(C)[C@@H](Cc2ccccc2)C(=O)N(C)[C@@H](CC(C)C)C(=O)N[C@@H](CC(C)C)C(=O)N(C)[C@@H](CC(C)C)C(=O)N[C@H](C(=O)N2CCCCC2)CC(=O)N(C)CC(=O)N(C)[C@@H](Cc2ccccc2)C(=O)N[C@@H](CCOCC)C(=O)N(C)[C@@H](CC(C)C)C(=O)N[C@@H]([C@@H](C)O)C1=O [pd445] ([Sar][NMeF][hSer](Et)[NMeL]T[NBuGly][NMeF][NMeL]L[NMeL]D-Piperidide; lactam N-11)
Solution: 1.1e-06
